Test system: MIA PaCa-2 pancreatic cancer cell line
Assay: Cell proliferation assay (DAPI)
Format: cell-based
Settings: Homo sapiens; MIA PaCa-2 (Table 5A)
Each record here notes measured IC50.
readout label: IC50

compound | reported result
CN(C)CCOCCNc1nc(-c2nccn2C)nc2sc(-c3ccn(C)n3)c(-c3ccccc3)c12 [drawing 642] | > 1000 nM
CO[C@H]1CC[C@@H](Nc2nc(-c3nccn3C)nc3sc(C(=O)NC(C)C)c(-c4ccccc4)c23)C1 [drawing 659] | > 1000 nM
COC1CCC(Nc2nc(-c3nccn3C)nc3sc(-c4cccc(O)c4F)c(-c4ccccc4)c23)C1 (stereo not shown) [drawing 620] | > 1000 nM
CO[C@H]1CC[C@@H](Nc2nc(-c3nccn3C)nc(C(=O)N3CCc4c(O)cccc4C3)c2C)C1 [drawing 636] | > 1000 nM
Cn1ccc(-c2sc3nc(-c4nccn4C)nc(O)c3c2-c2ccccc2)n1 [drawing 639] | > 1000 nM
CO[C@H]1CC[C@@H](Nc2nc(-c3nccn3C)nc3sc(-c4cccc5[nH]ncc45)c(-c4ccccc4)c23)C1 [drawing 624] | 750 to 1000 nM
CO[C@H]1CC[C@@H](Nc2nc(-c3ncc[nH]3)nc3sc(-c4ccn(C)n4)c(-c4ccccc4)c23)C1 [drawing 646] | 750 to 1000 nM
CO[C@H]1CC[C@@H](Nc2nc(-c3nccn3C)nc3sc(-c4ccn(C(C)C)n4)c(-c4ccccc4)c23)C1 [drawing 647] | 500 to 749 nM
Cn1ccc(-c2sc3nc(-c4nccn4C)nc(N[C@H]4C[C@@H](O)C4)c3c2-c2ccccc2)n1 [drawing 643] | > 1000 nM
CO[C@H]1C[C@H](Nc2nc(-c3nccn3C)nc3sc(-c4ccn(C)n4)c(-c4ccccc4)c23)C1 [drawing 641] | > 1000 nM
CO[C@H]1C[C@@H](Nc2nc(-c3ccccn3)nc3sccc23)C1 [drawing 637] | > 1000 nM
CO[C@H]1CC[C@@H](Nc2nc(-c3nccn3C)nc3sc(C(=O)N4CCCC4)c(-c4ccccc4)c23)C1 [drawing 661] | > 1000 nM
COc1cccc(-c2sc3nc(-c4nccn4C)nc(N[C@@H]4CC[C@H](OC)C4)c3c2-c2ccccc2)c1F [drawing 619] | 750 to 1000 nM
COC1CCC(Nc2nc(-c3nccn3C)nc3sc(-c4cccc5[nH]ncc45)c(-c4ccccc4)c23)C1 (stereo not shown) [drawing 623] | 750 to 1000 nM
CO[C@H]1C[C@@H](Nc2nc(-c3nccn3C)nc3sc(-c4ccn(C)n4)c(-c4ccccc4)c23)C1 [drawing 640] | > 1000 nM
CO[C@H]1CC[C@@H](Nc2nc(-c3nc(C)cn3C)nc3sc(-c4cccc5[nH]ncc45)c(C)c23)C1 [drawing 632] | > 1000 nM
